Quick record: IC50, BTK (Homo sapiens, UniProt Q06187).
Answers are plain numbers, in nM.

C=CC(=O)N1CC[C@]2(C1)C[C@H](n1c(NC(=O)c3cc(C4CCC4)no3)nc3cc(CN4CCCC4)ccc31)C2 | 7.65
C=CC(=O)N1CC[C@]2(C1)C[C@H](n1c(NC(=O)c3cc(C4CCCCC4)no3)nc3cc(CN4CCCC4)ccc31)C2 | 10.1

Let us move to another entry and its IC50.
According to the records, this molecule `C=CC(=O)N1CC[C@]2(C1)C[C@H](n1c(NC(=O)c3cc(C)no3)nc3cc(CN4CCOCC4)ccc31)C2` displays IC50 of 14.7

====

Provide the recorded pIC50 for the entries that follow.
# measured on: TXK (Homo sapiens, UniProt P42681)
# Sequence (P42681 1-527): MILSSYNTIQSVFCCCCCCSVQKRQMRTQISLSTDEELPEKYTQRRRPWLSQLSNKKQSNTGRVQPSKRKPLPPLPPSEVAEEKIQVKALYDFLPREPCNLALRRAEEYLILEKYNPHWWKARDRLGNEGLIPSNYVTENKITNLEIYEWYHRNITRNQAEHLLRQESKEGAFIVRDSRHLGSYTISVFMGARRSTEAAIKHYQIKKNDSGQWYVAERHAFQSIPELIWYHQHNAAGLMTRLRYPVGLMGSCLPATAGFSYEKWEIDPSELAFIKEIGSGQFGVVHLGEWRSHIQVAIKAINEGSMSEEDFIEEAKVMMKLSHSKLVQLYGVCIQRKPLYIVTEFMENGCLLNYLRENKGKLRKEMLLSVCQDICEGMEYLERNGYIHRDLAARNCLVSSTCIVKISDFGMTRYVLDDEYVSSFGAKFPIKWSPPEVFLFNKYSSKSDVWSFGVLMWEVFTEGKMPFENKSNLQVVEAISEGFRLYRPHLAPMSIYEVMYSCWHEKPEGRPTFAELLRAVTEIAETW
One number for each entry, as −log10 of the molar value.

C=CC(=O)N1CC[C@]2(C1)C[C@H](n1c(NC(=O)c3cc(C)no3)nc3cc(CN4CCCC4)ccc31)C2 [Compound 1] | 8.28

Tested on TXK (Homo sapiens, UniProt P42681): C=CC(=O)N1CC[C@]2(C1)C[C@H](n1c(NC(=O)c3cc(C(C)(C)C)no3)nc3cc(CN4CCCC4)ccc31)C2 [Compound 7] . Observed pIC50: 8.30

====

# measured on: TXK (Homo sapiens, UniProt P42681)
# protocol text: Biochemical kinase assay (Nanosyn, micro-fluidic detection), TXK
# measurement context: ratio of ITK IC50 to TXK IC50
Could you please report measured ITK/TXK Ratio for the items listed next?
Give bare numbers.

// each compound listed below needs its ITK/TXK Ratio
1. C=CC(=O)N1CC[C@]2(C1)C[C@H](n1c(NC(=O)c3cc(C4CCC4)no3)nc3cc(CN4CCCC4)ccc31)C2
2. C=CC(=O)N1CC[C@]2(C1)C[C@H](n1c(NC(=O)c3cc(-c4ccccc4)no3)nc3cc(CN4CCCC4)ccc31)C2

[461, 187]

====

# measured on: TXK (Homo sapiens)
# protocol text: Biochemical kinase assay (Nanosyn, micro-fluidic detection), TXK
# measurement context: ratio of ITK IC50 to TXK IC50
For each record, write down the corresponding ITK/TXK Ratio.
Answers are plain numbers.

C=CC(=O)N1CC[C@]2(C1)C[C@H](n1c(NC(=O)c3cc(C)no3)nc3cc(CN4CCOCC4)ccc31)C2 | 13.5
C=CC(=O)N1CC[C@]2(C1)C[C@H](n1c(NC(=O)c3cc(C)no3)nc3cc(CN4CCN(C)CC4)ccc31)C2 | 23.2
C=CC(=O)N1CC[C@]2(C1)C[C@H](n1c(NC(=O)c3cc(C)no3)nc3cc(CN4CCCC4)ccc31)C2 | 24.1

Next compound, ITK/TXK Ratio to be filled in.
Per the record, `C=CC(=O)N1CC[C@]2(C1)C[C@H](n1c(NC(=O)c3cc(C(C)C)no3)nc3cc(CN4CCCC4)ccc31)C2` has ITK/TXK Ratio of 390
